assay: Hydrolysis rate constant at pH 10; type: ADME; details: buffer
test.readout: k (h⁻¹)

Solved cases below.
compound="CC(=O)OCC1=C(C(=O)O)N2C(=O)C(NC(=O)COc3ccccc3)C2SC1 (configuration not stated)" test_readout=k observed_value=0.378
compound="CC1=C(C(=O)O)N2C(=O)C(NC(=O)C(N)C3=CCC=CC3)C2SC1 (configuration not stated)" test_readout=k observed_value=0.067
compound="CC1=C(C(=O)O)N2C(=O)C(NC(=O)Cc3cccs3)C2SC1 (configuration not stated)" test_readout=k observed_value=0.038
compound="CC1=C(C(=O)O)N2C(=O)[C@@H](NC(=O)[C@H](N)c3ccccc3)[C@H]2SC1 [CEPHALEXIN ANHYDROUS]" test_readout=k observed_value=0.145
compound="CC1=C(C(=O)O)N2C(=O)C(NC(=O)Cc3ccccc3)C2SC1 (configuration not stated)" test_readout=k observed_value=0.033

I. O=C(COc1ccccc1)NC1C(=O)N2C(C(=O)[O-])=C(C[n+]3ccccc3)CSC12 (configuration not stated)
II. CC(=O)OCC1=C(C(=O)O)N2C(=O)C(NC(=O)Cc3ccccc3)C2SC1 (configuration not stated)
Lookup: Lab log: flag the item ( I or II ) with the smaller k figure. Field: selected label. Fill in the label of the entry you choose.
Found: II

P. CSCC1=C(C(=O)O)N2C(=O)C(NC(=O)Cc3cccs3)C2SC1 (configuration not stated)
Q. Cc1nnc(SCC2=C(C(=O)O)N3C(=O)[C@@H](NC(=O)Cn4cnnn4)[C@H]3SC2)s1
Lookup: Lab log: flag the item ( P or Q ) with the smaller k figure. Field: selected label. Fill in the label of the entry you choose.
Found: P

I. O=C(COc1ccccc1)NC1C(=O)N2C(C(=O)O)=C(CO)CSC12 (configuration not stated)
II. CC1=C(C(=O)O)N2C(=O)C(NC(=O)COc3ccccc3)C2SC1 (configuration not stated)
Lookup: Lab log: flag the item ( I or II ) with the smaller k figure. Field: selected label. Fill in the label of the entry you choose.
Found: II

====

assay: Hydrolysis rate constant at pH 9.6; assay type: ADME; details: buffer
test.readout: k (h⁻¹)

compound=CC(=O)OCC1=C(C(=O)O)N2C(=O)[C@@H](N)[C@H]2SC1 value_unit=h⁻¹ observed_value=0.037
compound="Cn1nnnc1SCC1=C(C(=O)O)N2C(=O)C(NC(=O)Cc3cccs3)C2SC1 (stereo unspecified)" value_unit=h⁻¹ observed_value=0.126
compound="Cc1nc(CC(=O)NC2C(=O)N3C(C(=O)O)=C(CSc4nnc(C)s4)CSC23)no1 (stereo unspecified)" value_unit=h⁻¹ observed_value=0.104
compound="O=C(Cc1cccs1)NC1C(=O)N2C(C(=O)O)=C(CSc3nc4ccccc4s3)CSC12 (stereo unspecified)" value_unit=h⁻¹ observed_value=0.095
compound="CC(C(=O)NC1C(=O)N2C(C(=O)O)=C(CSc3nnnn3C)CSC12)c1cccs1 (stereo unspecified)" value_unit=h⁻¹ observed_value=0.112
